Data origin: the Human Domainome abundance scans (Beltran et al. 2025)

B1: Cyclin-F, residues 28 to 80; numbered along this chain, P41002 (parent)
chain: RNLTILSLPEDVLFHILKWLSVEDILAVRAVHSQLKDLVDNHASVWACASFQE

Variants of: B1
measurementDescription: abundance fitness (aPCA) (normalised: wild type 0, dead -1); higher = more abundant; growth selection in yeast, the domain comes from the species named
measurementSetup: Homo sapiens
parameter: abundance fitness

[ask] Which value of abundance fitness has been reported for W46L in the records?
[reply] -0.114

[ask] Look at this variant and give its reported abundance fitness. H15D
[reply] -0.408

[ask] Look up abundance fitness for this variant: A27W
[reply] -0.622

[ask] Value lookup for abundance fitness; key = T4I
[reply] -0.866

Further cases:
[ask] Query: abundance fitness; subject: A47I
[reply] -0.178

[ask] Need abundance fitness of D11W , thanks.
[reply] -0.731
